Below, each entry is listed alongside its reported Cl.
# Organism: Rattus norvegicus
# Protocol: Open TG-GATES - Regimen: Daily Repeat
# Type: toxicity, organism-based, Sprague-Dawley
# Parameters: regimen Daily Repeat, gender Male, age 6 weeks
# Reported conditions: in vivo, po, 100 mg/kg, […], tissue Plasma, route gavage, dose level Low, time 14 day
Just the number in meq/L, nothing appended.

// solved cases for Cl follow
[
  {
    "Smiles repr": "Cc1nnc2n1-c1ccc(Cl)cc1C(c1ccccc1Cl)=NC2",
    "Unit of measurement": "meq/L",
    "Cl": 104.8
  },
  {
    "Smiles repr": "CCOc1ccc(NC(C)=O)cc1",
    "Unit of measurement": "meq/L",
    "Cl": 106
  },
  {
    "Smiles repr": "CNC(=C[N+](=O)[O-])NCCSCc1ccc(CN(C)C)o1",
    "Unit of measurement": "meq/L",
    "Cl": 103.6
  },
  {
    "Smiles repr": "O=C(OC[C@H]1O[C@@H](OC(=O)c2cc(O)c(O)c(OC(=O)c3cc(O)c(O)c(O)c3)c2)[C@H](OC(=O)c2cc(O)c(O)c(OC(=O)c3cc(O)c(O)c(O)c3)c2)[C@@H](OC(=O)c2cc(O)c(O)c(OC(=O)c3cc(O)c(O)c(O)c3)c2)[C@@H]1OC(=O)c1cc(O)c(O)c(OC(=O)c2cc(O)c(O)c(O)c2)c1)c1cc(O)c(O)c(OC(=O)c2cc(O)c(O)c(O)c2)c1",
    "Unit of measurement": "meq/L",
    "Cl": 102.8
  },
  {
    "Smiles repr": "CN/C(=N/CCSCc1nc[nH]c1C)NC#N",
    "Unit of measurement": "meq/L",
    "Cl": 102
  }
]

// moving on: another record for Cl
Value lookup for Cl; key = COC(=O)C1=C(C)NC(C)=C(C(=O)OC)C1c1ccccc1[N+](=O)[O-]
105.8
